Data provenance is patent US8188135B2.

target: rat CB2 (Rattus norvegicus, UniProt Q9QZN9); test: rat CB2 cyclase functional assay (HitHunter cAMP); format: cell-based; parameters: expressed in transfected cells; host or cells: HEK; settings: rat CB2 cyclase (EC50, nM), HEK cells, forskolin 18 μM
Sequence (Q9QZN9 whole entry): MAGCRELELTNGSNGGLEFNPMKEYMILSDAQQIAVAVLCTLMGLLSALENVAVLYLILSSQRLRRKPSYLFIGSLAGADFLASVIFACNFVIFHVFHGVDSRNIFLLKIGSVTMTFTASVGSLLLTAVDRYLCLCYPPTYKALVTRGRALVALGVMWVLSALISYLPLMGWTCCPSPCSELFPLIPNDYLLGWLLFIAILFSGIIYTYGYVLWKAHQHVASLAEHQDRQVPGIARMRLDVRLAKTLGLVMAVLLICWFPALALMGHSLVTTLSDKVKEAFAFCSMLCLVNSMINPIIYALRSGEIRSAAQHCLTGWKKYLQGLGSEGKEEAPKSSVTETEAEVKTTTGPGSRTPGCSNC
Would you mind telling me the reported EC50 of each entry?
Answers are plain numbers, in nM.

Hi! Can you tell me EC50 for each of these molecules?
1. Cn1c(C(C)(C)C)c/c(=N\C(=O)c2cc(C(F)(F)F)ccc2OCC(C)(C)O)n1CCC(F)(F)F
2. CC(C)(C)c1cn(C[C@H]2CCCO2)/c(=N/C(=O)c2cc(C(F)(F)F)ccc2OCCN2CCCC2)o1
3. Cn1c(C(C)(C)C)c/c(=N\C(=O)c2cc(C(F)(F)F)ccc2OCCC2=CCCC2)n1C[C@H]1CCCO1
4. Cn1c(C(C)(C)C)c/c(=N\C(=O)c2cc(C(F)(F)F)ccc2OCCS(C)(=O)=O)n1C[C@H]1CCCO1
5. Cn1c(C(C)(C)C)c/c(=N\C(=O)c2cc(C(F)(F)F)ccc2OCC(C)(C)O)n1CC1CCC1

1: 0.25; 2: 0.1; 3: 2.7; 4: 0.93; 5: 0.23

Record EC50 for all entries; do not skip any.
1. Cn1c(C(C)(C)C)c/c(=N\C(=O)c2cc(C(F)(F)F)ccc2OCCNS(C)(=O)=O)n1C[C@H]1CCCO1
2. Cn1c(C(C)(C)C)c/c(=N\C(=O)c2cc(C(F)(F)F)ccc2NC[C@@H]2CCCO2)n1C[C@H]1CCCO1
3. Cn1c(C(C)(C)C)c/c(=N\C(=O)c2cc(Cl)ccc2OCC(C)(C)O)n1C[C@H]1CCCO1

1: 0.47; 2: 0.19; 3: 0.61

Give measured EC50 for every item shown.
1. Cn1c(C(C)(C)C)c/c(=N\C(=O)c2cc(C(F)(F)F)ccc2OC[C@H]2OCC[C@H]2F)n1C[C@H]1CCCO1
2. CN1CCC[C@H]1COc1ccc(C(F)(F)F)cc1C(=O)/N=c1\cc(C(C)(C)C)on1C[C@H]1CCCO1
3. Cn1c(C2(C)CC2)c/c(=N\C(=O)c2cc(C(F)(F)F)ccc2OCC(C)(C)O)n1C[C@H]1CCCO1
4. Cn1c(C(C)(C)C)c/c(=N\C(=O)c2cc(C(F)(F)F)ccc2OCCN2CCCC2=O)n1C[C@H]1CCCO1
5. Cn1c(C(C)(C)C)c/c(=N\C(=O)c2cc(C(F)(F)F)ccc2OC[C@@H]2CCN2)n1C[C@H]1CCCO1
6. Cn1c(C(C)(C)C)c/c(=N\C(=O)c2cc(C(F)(F)F)ccc2OCc2cccnc2)n1C[C@H]1CCCO1

1. 0.28
2. 0.63
3. 0.47
4. 1.4
5. 0.77
6. 2.4
